Origin of measurements: PubChem BioAssay (NCI)

Answer each item with its documented growth inhibition.
PROCEDURE_SUMMARY: NCI Yeast Anticancer Drug Screen. Data for the mlh1 rad18 strain (AID 175)
CONDITION_DESCRIPTION: S. cerevisiae mlh1 rad18 strain growth inhibition; at 50.0 µM; active compounds read high
The panel holds about 79,000 compounds, 15% with a hit somewhere; the sample as a whole holds those more often. Where a SMILES comes first, the peptide text is derived from it. The star is where a group is joined. Cbz = O=C(OCc1ccccc1)*
Write the answer as a number in %, unit excluded.

Tell us which growth inhibition value is on record for O=C(CNC(=O)C(CSC(c1ccccc1)(c1ccccc1)c1ccccc1)NC(=O)OCc1ccccc1)OCc1ccccc1[N+](=O)[O-] (configuration not stated)
20.1

Name the recorded growth inhibition of the compound listed here: COC(=O)/C(=N\NC(C)(C)C)C(C(=O)C(=O)Nc1cc(C)ccc1C)c1nc2ccccc2[nH]c1=O (configuration not stated)
-17.8

Please give measured growth inhibition of the following entry: CC(C)CC(NC(=O)C(NC(=O)C(N)C(C)O)C(C)C)C(=O)O (stereo not drawn) (H-Thr-Val-Leu-OH; configuration not given here)
-1.5

Let me know recorded growth inhibition for Cc1c([N+](=O)[O-])cc(C(=O)O)cc1[N+](=O)[O-] , thanks.
27.9

Return growth inhibition (reported value) for this compound: COc1ccc(/C=N/NC(=O)c2ccc(N)cc2)c(OC)c1
13

Identify measured growth inhibition associated with CCN(CC)c1ccc(/C=N\NC(=S)N/N=C/c2ccc(N(CC)CC)cc2)cc1
-1.1

Tell me its growth inhibition given COc1ccc(CCN2C(=O)c3cccc4c(Br)ccc(c34)C2=O)cc1 as the entry.
35.9

Indicate its recorded growth inhibition; the compound in question is CC(C)C(NC(=O)CI)C(=O)Nc1ccc(C(=O)O)c(O)c1 (configuration not stated)
24.1

Quickly give me recorded growth inhibition for COc1ccc(NC(N)=O)cc1
10.4

Specify measured growth inhibition for CN(C)c1ccc(N=Nc2ccc3nc[nH]c3c2)cc1 .
26.5

Quickly give me recorded growth inhibition for C/C(=N/NC(N)=S)c1cn[nH]c1C
-1.6

Provide only the value of recorded growth inhibition for CCOC(=O)/C=C\SCC(=O)OCC
-14.9

Give the measured growth inhibition for CN1c2ccccc2Nc2cc(C#N)ccc21
5.7

Give growth inhibition for Cc1ccc(S(=O)(=O)NC2C(=O)c3ccccc3C(=O)C2n2cnc3ccccc32)cc1 (configuration not stated)
-28.8

Look up and report measured growth inhibition for this entry: NC(=O)CC(Nc1ncc2c(n1)-c1ccccc1OC2)C(=O)O (configuration not stated)
-53.8

Identify measured growth inhibition associated with Cn1c2ccccc2n2c(=O)c3c(c(C#N)c12)CCCC3
-21.7

Note growth inhibition for the compound shown: COC(=O)C(CC(C)C)NC(=O)C(CCCN=C(N)N)NC(=O)OCc1ccccc1 (stereo not drawn) (Cbz-Arg-Leu-OMe; configuration not given here)
-12.8

Check the records and state growth inhibition for O=c1c2cnccc2cc2n1CCc1c-2[nH]c2ccccc12
86.4

Supply recorded growth inhibition for CN(C)C(=Nc1ccccc1)N(C)N here.
0.95

Give the measured growth inhibition for CC(CCl)CC#N (configuration not stated)
-1.1

Report growth inhibition for CC(=O)ON(C(C)=O)c1ccc(C(N)=O)cc1
-71.5

Give recorded growth inhibition. CCCCCCCC(=O)OCC(COC(=O)CCCCCCC)OC(=O)CCCCCCC
27.1
